Exercise: for every item that follows, state its recorded EC50.
- experimental target: Delta-type opioid receptor (Homo sapiens, UniProt P41143)
- Sequence (P41143 whole entry): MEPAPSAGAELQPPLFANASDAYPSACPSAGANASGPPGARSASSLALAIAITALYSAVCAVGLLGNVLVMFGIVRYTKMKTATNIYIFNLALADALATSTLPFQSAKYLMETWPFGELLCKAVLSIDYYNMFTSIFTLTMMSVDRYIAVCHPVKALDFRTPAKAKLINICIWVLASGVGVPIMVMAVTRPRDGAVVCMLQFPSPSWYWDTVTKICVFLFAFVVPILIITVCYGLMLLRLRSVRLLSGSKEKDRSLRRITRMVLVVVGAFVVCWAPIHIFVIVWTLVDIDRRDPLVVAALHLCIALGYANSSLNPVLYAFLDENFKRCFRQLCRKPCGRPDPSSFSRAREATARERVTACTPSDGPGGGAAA
- assay overview: Agonist activity at human delta opioid receptor by [35S]GTP-gamma-S binding assay
Write down the value, and be sure its unit follows.

1. N[C@@H](Cc1ccc(O)cc1)C(=O)N[C@@H]1C/C=C/C[C@H](C(=O)O)NC(=O)[C@H](Cc2ccccc2)NC(=O)CNC1=O ... 0.88 nM

q: Fill in: EC50 of N[C@@H](Cc1ccc(O)cc1)C(=O)N[C@@H]1C/C=C\C[C@H](C(=O)O)NC(=O)[C@H](Cc2ccccc2)NC(=O)CNC1=O is ___
a: 0.83 nM
